system tested: activated human C1 (Homo sapiens)
experimental details: Test Code 026 (C1 inhibitor): ability of activated human C1 to destroy fluid phase human C2 in the presence of C4
Type: biochemical
experimental parameters: Table I; two-fold serial dilution assay, higher well number indicates higher activity
For each record, write down the corresponding Cl 026 (C1 inhibitor).

Recorded results for 2 compounds are shown here.
# smiles, system tested, val
rows = [
    ("Cc1ccc(C(=O)Nc2ccc(S(=O)(=O)[O-])c3cc(S(=O)(=O)[O-])cc(S(=O)(=O)[O-])c23)cc1NC(=O)c1cc(NC(=O)Nc2cc(C(=O)O)cc(C(=O)Nc3cc(C(=O)Nc4ccc(S(=O)(=O)[O-])c5cc(S(=O)(=O)[O-])cc(S(=O)(=O)[O-])c45)ccc3C)c2)cc(C(=O)O)c1.[Na+].[Na+].[Na+].[Na+].[Na+].[Na+]", "activated human C1 (Homo sapiens)", "+5 Wells"),
    ("Cc1ccc(NC(=O)c2ccc(NC(=O)Nc3ccc(C(=O)Nc4ccc(C)c(S(=O)(=O)Nc5cc(S(=O)(=O)O)cc6cc(S(=O)(=O)O)cc(S(=O)(=O)O)c56)c4)c(S(=O)(=O)O)c3)cc2S(=O)(=O)O)cc1S(=O)(=O)Nc1cc(S(=O)(=O)O)cc2cc(S(=O)(=O)O)cc(S(=O)(=O)O)c12", "activated human C1 (Homo sapiens)", "+4 Wells"),
]

[ask] Param readout= Cl 026 (C1 inhibitor); system= activated human C1 (Homo sapiens); entry= Cc1ccc(C(=O)Nc2cc(C(=O)O)cc(C(=O)Nc3ccc(S(=O)(=O)O)c4cc(S(=O)(=O)O)cc(S(=O)(=O)O)c34)c2)cc1NC(=O)Nc1cc(C(=O)Nc2cc(C(=O)O)cc(C(=O)Nc3ccc(S(=O)(=O)O)c4cc(S(=O)(=O)O)cc(S(=O)(=O)O)c34)c2)ccc1C ; returns value.
[reply] +5 Wells
